Data provenance is patent USRE47150.

Biological target: T1, mouse tissue factor pathway inhibitor (TFPI) (mouse, UniProt O54819 29-289, limits assumed)
T1 construct: bought; also called mTFPI; murine TFPI
T1 sequence (looked up): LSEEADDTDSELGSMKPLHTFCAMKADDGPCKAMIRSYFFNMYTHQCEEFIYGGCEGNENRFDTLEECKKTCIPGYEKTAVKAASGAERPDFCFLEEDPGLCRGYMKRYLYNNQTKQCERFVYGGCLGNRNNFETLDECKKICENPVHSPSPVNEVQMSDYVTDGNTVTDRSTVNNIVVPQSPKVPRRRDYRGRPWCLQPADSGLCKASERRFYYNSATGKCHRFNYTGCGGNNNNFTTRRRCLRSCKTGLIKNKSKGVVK
Experiment: SPR, TFPI immobilized
observed-property: KD fold improvement (fold)

| binder | readout-units | reported |
| --- | --- | --- |
| B9.7 (4B7 HC N32D+D62R+Y112D/LC S32R+N35I) (Fab, V domains shown) VH: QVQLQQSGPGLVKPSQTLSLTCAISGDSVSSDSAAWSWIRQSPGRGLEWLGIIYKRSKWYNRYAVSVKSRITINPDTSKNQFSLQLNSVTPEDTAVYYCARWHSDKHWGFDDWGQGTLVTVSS VL: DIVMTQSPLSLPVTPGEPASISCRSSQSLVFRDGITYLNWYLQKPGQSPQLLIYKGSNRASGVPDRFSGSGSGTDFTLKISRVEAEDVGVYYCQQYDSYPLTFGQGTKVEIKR | fold | 588 |
| B27.1 (4B7 HC N32D+D62R+Y112D/LC N35T+D97T) (Fab, V domains shown) VH: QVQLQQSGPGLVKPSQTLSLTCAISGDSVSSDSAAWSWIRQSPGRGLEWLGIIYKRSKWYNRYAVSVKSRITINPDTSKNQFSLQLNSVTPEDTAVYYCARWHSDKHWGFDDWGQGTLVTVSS VL: DIVMTQSPLSLPVTPGEPASISCRSSQSLVFSDGTTYLNWYLQKPGQSPQLLIYKGSNRASGVPDRFSGSGSGTDFTLKISRVEAEDVGVYYCQQYTSYPLTFGQGTKVEIKR | fold | 299 |
| B18.5 (4B7 HC N32D+D62Q+Y112D/LC F31I+D33F+N35I) (Fab, V domains shown) VH: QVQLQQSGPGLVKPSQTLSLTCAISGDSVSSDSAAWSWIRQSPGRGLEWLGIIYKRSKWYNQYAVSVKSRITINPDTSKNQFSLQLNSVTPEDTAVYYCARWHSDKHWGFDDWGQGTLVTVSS VL: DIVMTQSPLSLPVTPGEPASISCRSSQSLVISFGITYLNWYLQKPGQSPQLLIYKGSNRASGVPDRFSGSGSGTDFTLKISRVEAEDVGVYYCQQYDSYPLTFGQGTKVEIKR | fold | 139 |
| B32.5 (4B7 HC D62R+Y112D/LC D33F+N35I) (Fab, V domains shown) VH: QVQLQQSGPGLVKPSQTLSLTCAISGDSVSSNSAAWSWIRQSPGRGLEWLGIIYKRSKWYNRYAVSVKSRITINPDTSKNQFSLQLNSVTPEDTAVYYCARWHSDKHWGFDDWGQGTLVTVSS VL: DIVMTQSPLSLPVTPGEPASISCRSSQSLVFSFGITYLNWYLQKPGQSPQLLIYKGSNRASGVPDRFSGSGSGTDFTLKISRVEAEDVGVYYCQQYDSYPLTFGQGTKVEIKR | fold | 528 |
| 4B7 wild-type Fab (Fab, V domains shown, Fab with HA (or c-myc) and 6xHis tag at the C-terminus of the heavy chain; also called 4B7wt; parental 4B7) VH: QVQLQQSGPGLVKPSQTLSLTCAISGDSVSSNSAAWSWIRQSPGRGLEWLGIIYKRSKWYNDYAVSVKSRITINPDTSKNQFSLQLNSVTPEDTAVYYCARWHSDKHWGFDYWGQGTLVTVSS VL: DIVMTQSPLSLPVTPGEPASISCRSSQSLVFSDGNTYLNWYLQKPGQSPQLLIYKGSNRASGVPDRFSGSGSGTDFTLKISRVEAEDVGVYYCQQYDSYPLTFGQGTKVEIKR | fold | 1 |
